Examples of binders with documented human MASP1 IC50 follow.
# assay.target: T1, recombinant human MASP1 active protease (amino acids 297-699, C-terminal His Tag) (human, UniProt P48740 297-699)
# T1 sequence: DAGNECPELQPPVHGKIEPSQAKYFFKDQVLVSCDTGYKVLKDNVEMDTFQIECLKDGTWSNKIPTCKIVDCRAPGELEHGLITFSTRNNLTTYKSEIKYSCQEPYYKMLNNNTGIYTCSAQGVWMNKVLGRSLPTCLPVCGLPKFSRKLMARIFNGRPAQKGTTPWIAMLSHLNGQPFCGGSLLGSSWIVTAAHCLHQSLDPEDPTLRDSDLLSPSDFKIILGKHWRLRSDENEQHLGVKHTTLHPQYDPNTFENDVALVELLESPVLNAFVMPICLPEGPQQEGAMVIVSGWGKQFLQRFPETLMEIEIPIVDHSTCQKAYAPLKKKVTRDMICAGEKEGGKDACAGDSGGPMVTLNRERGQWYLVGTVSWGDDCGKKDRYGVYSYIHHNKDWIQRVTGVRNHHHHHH
# protocol.details: cell-based or functional assay
Bridge positions count the residues as written; N and C are the ends. Square brackets hold non-standard residues; d marks the D form. Ends that are not written are not given here. Pro(3S,4R-methano) = O=C(O)[C@H]1NC[C@@H]2C[C@@H]21; Oic = O=C(O)[C@@H]1C[C@@H]2CCCC[C@@H]2N1; tBuAla = CC(C)(C)C[C@H](N)C(=O)O; 3Pal = N[C@@H](Cc1cccnc1)C(=O)O; Cit = NC(=O)NCCC[C@H](N)C(=O)O; Pen = CC(C)(S)[C@H](N)C(=O)O; NMeA = CN[C@@H](C)C(=O)O; Sar = CNCC(=O)O

[
  {
    "binder": "[3Pal]ICSRS[tBuAla]PPI[Pen]IPD-NH2 (disulfide 3-11; N-terminus assumed; SMILES CC[C@H](C)[C@H](NC(=O)[C@@H](N)Cc1cccnc1)C(=O)N[C@H]1CSSC(C)(C)[C@@H](C(=O)N[C@H](C(=O)N2CCC[C@H]2C(=O)N[C@@H](CC(=O)O)C(N)=O)[C@@H](C)CC)NC(=O)[C@H]([C@@H](C)CC)NC(=O)[C@@H]2CCCN2C(=O)[C@@H]2CCCN2C(=O)[C@H](CC(C)(C)C)NC(=O)[C@H](CO)NC(=O)[C@H](CCCNC(=N)N)NC(=O)[C@H](CO)NC1=O) [(3-Pal)-IC+SRS-((tBu)A)-PPI-(Pen)+IPD-NH2]",
    "human MASP1 IC50": "2.6 nM"
  },
  {
    "binder": "[NMeA]ICSRSLP[Oic]I[Pen]IPE-NH2 (disulfide 3-11; N-terminus assumed; SMILES CC[C@H](C)[C@H](NC(=O)[C@H](C)NC)C(=O)N[C@H]1CSSC(C)(C)[C@@H](C(=O)N[C@H](C(=O)N2CCC[C@H]2C(=O)N[C@@H](CCC(=O)O)C(N)=O)[C@@H](C)CC)NC(=O)[C@H]([C@@H](C)CC)NC(=O)[C@@H]2C[C@@H]3CCCC[C@@H]3N2C(=O)[C@@H]2CCCN2C(=O)[C@H](CC(C)C)NC(=O)[C@H](CO)NC(=O)[C@H](CCCNC(=N)N)NC(=O)[C@H](CO)NC1=O) [((N-Me)A)-IC+SRSLP-(Oic)-I-(Pen)+IPE-NH2]",
    "human MASP1 IC50": "3.3 nM"
  },
  {
    "binder": "[Sar]ICSRSL[Pro(3S,4R-methano)]PI[Pen]IP-NH2 (disulfide 3-11; N-terminus assumed; SMILES CC[C@H](C)[C@H](NC(=O)CNC)C(=O)N[C@H]1CSSC(C)(C)[C@@H](C(=O)N[C@H](C(=O)N2CCC[C@H]2C(N)=O)[C@@H](C)CC)NC(=O)[C@H]([C@@H](C)CC)NC(=O)[C@@H]2CCCN2C(=O)[C@@H]2[C@H]3C[C@H]3CN2C(=O)[C@H](CC(C)C)NC(=O)[C@H](CO)NC(=O)[C@H](CCCNC(=N)N)NC(=O)[C@H](CO)NC1=O) [((N-Me)G)-IC+SRSL-((1S,2S,5R)-3-azabicyclo[3.1.0]hexane-2-carboxylic acid)-PI-(Pen)+IP-NH2]",
    "human MASP1 IC50": "2.1 nM"
  },
  {
    "binder": "[Cit]ICSRS[tBuAla]PPI[Pen]IPD-NH2 (disulfide 3-11; N-terminus assumed; SMILES CC[C@H](C)[C@H](NC(=O)[C@@H](N)CCCNC(N)=O)C(=O)N[C@H]1CSSC(C)(C)[C@@H](C(=O)N[C@H](C(=O)N2CCC[C@H]2C(=O)N[C@@H](CC(=O)O)C(N)=O)[C@@H](C)CC)NC(=O)[C@H]([C@@H](C)CC)NC(=O)[C@@H]2CCCN2C(=O)[C@@H]2CCCN2C(=O)[C@H](CC(C)(C)C)NC(=O)[C@H](CO)NC(=O)[C@H](CCCNC(=N)N)NC(=O)[C@H](CO)NC1=O) [(Cit)-IC+SRS-((tBu)A)-PPI-(Pen)+IPD-NH2]",
    "human MASP1 IC50": "1.7 nM"
  }
]
